Record: pKi reported on Acetylcholinesterase (Electrophorus electricus, UniProt O42275).
Sequence (O42275 whole entry): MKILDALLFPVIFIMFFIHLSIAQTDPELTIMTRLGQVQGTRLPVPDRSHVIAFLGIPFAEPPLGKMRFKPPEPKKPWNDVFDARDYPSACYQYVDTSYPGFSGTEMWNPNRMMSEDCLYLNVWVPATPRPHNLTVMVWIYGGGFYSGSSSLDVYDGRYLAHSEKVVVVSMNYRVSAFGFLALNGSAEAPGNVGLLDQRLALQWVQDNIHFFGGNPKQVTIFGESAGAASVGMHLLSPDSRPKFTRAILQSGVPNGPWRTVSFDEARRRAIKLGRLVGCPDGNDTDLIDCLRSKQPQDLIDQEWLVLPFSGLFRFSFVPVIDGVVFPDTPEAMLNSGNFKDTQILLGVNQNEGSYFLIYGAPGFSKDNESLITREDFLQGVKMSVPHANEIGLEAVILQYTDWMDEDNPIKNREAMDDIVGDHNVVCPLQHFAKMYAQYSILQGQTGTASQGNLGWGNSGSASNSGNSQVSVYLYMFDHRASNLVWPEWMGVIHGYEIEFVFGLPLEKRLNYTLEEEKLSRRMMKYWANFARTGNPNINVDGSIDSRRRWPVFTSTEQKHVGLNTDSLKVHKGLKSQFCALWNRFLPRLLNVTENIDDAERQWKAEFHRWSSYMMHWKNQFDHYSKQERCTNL
Schema: pKi number; meaning minus log10 of the concentration expressed in molar units.

{"columns": ["compound", "pKi"],
 "data": [
  ["COc1cc(CNC2C3N(Cc4cc(OC)cc(OC)c4)C4C(N2Cc2cc(OC)cc(OC)c2)N(Cc2cc(OC)cc(OC)c2)C2(CC2N3Cc2cc(OC)cc(OC)c2)N4Cc2cc(OC)cc(OC)c2)cc(OC)c1 (stereo not drawn)", 6.89],
  ["c1cc2c(cc1CNC1C3N(Cc4ccc5c(c4)OCO5)C4C(N1Cc1ccc5c(c1)OCO5)N(Cc1ccc5c(c1)OCO5)C1(CC1N3Cc1ccc3c(c1)OCO3)N4Cc1ccc3c(c1)OCO3)OCO2 (stereo not drawn)", 6.49]
]}

Query: Report pKi from Acetylcholinesterase (Electrophorus electricus, UniProt O42275) testing of Clc1ccccc1CNC1C2N(Cc3ccccc3Cl)C3C(N1Cc1ccccc1Cl)N(Cc1ccccc1Cl)C1(CC1N2Cc1ccccc1Cl)N3Cc1ccccc1Cl (stereo not drawn)
Reply: 7.41

###

- system_tested: Butyrylcholinesterase (Equus caballus)
- Sequence (Q9N1N9 whole entry): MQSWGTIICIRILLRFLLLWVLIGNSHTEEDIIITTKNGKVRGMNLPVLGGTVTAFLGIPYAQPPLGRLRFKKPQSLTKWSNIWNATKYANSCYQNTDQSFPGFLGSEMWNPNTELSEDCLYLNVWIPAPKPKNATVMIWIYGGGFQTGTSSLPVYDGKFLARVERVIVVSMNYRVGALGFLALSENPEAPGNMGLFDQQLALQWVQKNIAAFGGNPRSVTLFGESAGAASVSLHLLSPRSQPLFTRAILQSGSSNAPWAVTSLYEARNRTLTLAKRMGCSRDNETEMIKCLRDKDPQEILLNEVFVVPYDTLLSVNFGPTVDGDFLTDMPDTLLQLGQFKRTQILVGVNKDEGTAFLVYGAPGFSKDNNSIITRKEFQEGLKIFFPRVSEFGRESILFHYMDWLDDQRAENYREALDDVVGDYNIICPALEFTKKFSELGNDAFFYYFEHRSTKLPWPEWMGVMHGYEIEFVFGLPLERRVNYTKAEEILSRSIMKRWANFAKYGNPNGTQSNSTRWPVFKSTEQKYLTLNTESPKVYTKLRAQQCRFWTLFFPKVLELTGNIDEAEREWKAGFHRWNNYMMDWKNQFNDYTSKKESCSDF
- method: Inhibitory activity against Butyrylcholinesterase
property_measured: Ki (nM)
Number in nM, nothing else.

Example entries and their recorded answers appear below.
{"columns": ["compound", "display_unit", "Ki"],
 "data": [
  ["Clc1ccccc1CNC1C2N(Cc3ccccc3Cl)C3C(N1Cc1ccccc1Cl)N(Cc1ccccc1Cl)C1(CC1N2Cc1ccccc1Cl)N3Cc1ccccc1Cl (stereo not drawn)", "nM", 10],
  ["c1cc2c(cc1CNC1C3N(Cc4ccc5c(c4)OCO5)C4C(N1Cc1ccc5c(c1)OCO5)N(Cc1ccc5c(c1)OCO5)C1(CC1N3Cc1ccc3c(c1)OCO3)N4Cc1ccc3c(c1)OCO3)OCO2 (stereo not drawn)", "nM", 310]
]}

Now look at this entry.
Query: Indicate its recorded Ki; the compound in question is COc1cc(CNC2C3N(Cc4cc(OC)cc(OC)c4)C4C(N2Cc2cc(OC)cc(OC)c2)N(Cc2cc(OC)cc(OC)c2)C2(CC2N3Cc2cc(OC)cc(OC)c2)N4Cc2cc(OC)cc(OC)c2)cc(OC)c1 (stereo not drawn)
Reply: 60

Origin of values: ChEMBL document CHEMBL1136182
